// provenance: PubChem BioAssay (NCATS)

- Test system: TAB109
- experimentalProtocol: qHTS profiling for inhibitors of Plasmodium falciparum proliferation (AID 504749); also: nearly all actives have a fitted effect of over 60% in size
- assaySetup: P. falciparum in erythrocytes, SYBR Green DNA, 72 h; series mostly up to 28.7 µM
Results filed as inconclusive are left out. Active and inactive are the calls of the source. Calls follow the shape of the dose curve; as a rule, active = well fitted inhibition curve with a large enough effect; inconclusive = small, poorly fitted or top-dose-only effect; inactive = flat fitted curve, though single readings scatter.
Possible outcomes: True for active, False for inactive

INSERT INTO assay_data (compound, testsystem, qualitativelabel) VALUES
  ('Cc1c[nH]c2ccccc12', 'TAB109', 'False'),
  ('Nc1ccc(S(=O)(=O)NCc2ccccc2)cc1', 'TAB109', 'False'),
  ('O=C(c1ccc(F)cc1)C1CCN(CCn2c(=S)[nH]c3ccccc3c2=O)CC1', 'TAB109', 'True'),
  ('CN1CCN(C2=Nc3cc(F)ccc3Cc3ccccc32)CC1', 'TAB109', 'False'),
  ('NC(=O)c1ccccc1O', 'TAB109', 'False'),
  ('NS(=O)(=O)Cc1noc2ccccc12', 'TAB109', 'False'),
  ('CCN(CC)CCNc1ccc(CO)c2sc3ccccc3c(=O)c12', 'TAB109', 'True'),
  ('NC(=S)N/N=C/c1cccnc1', 'TAB109', 'False'),
  ('CCCCCCCCOc1ccc(C(=O)c2ccccc2)c(O)c1', 'TAB109', 'False'),
  ('COc1cc(C(=O)N2CCCCCCC2)cc(OC)c1OC', 'TAB109', 'False'),
  ('CCOC(=O)Nc1ccc2c(c1)N(C(=O)CCN1CCOCC1)c1ccccc1S2', 'TAB109', 'False'),
  ('Cc1cccc(C)c1NC(=O)c1ccccc1C(=O)O', 'TAB109', 'False'),
  ('C=CCN1CCc2nc(N)sc2CC1', 'TAB109', 'False'),
  ('O=C(O)P(=O)(O)O', 'TAB109', 'False'),
  ('CCN(CC)CCOC(=O)C1(c2ccccc2)CCCC1', 'TAB109', 'False'),
  ('CC(C)NCC(O)c1ccc2ccccc2c1 (stereo not drawn)', 'TAB109', 'True'),
  ('CCN(CC)CCOc1ccc2c(c1)C(=O)c1cc(OCCN(CC)CC)ccc1-2', 'TAB109', 'True'),
  ('CN(C)CCC[C@@]1(c2ccc(F)cc2)OCc2cc(C#N)ccc21', 'TAB109', 'False'),
  ('CC(C)CCCC(C)N (stereo not drawn)', 'TAB109', 'False'),
  ('NC(N)=NCc1cccc(I)c1', 'TAB109', 'False'),
  ('CNCCc1ccccn1', 'TAB109', 'False'),
  ('COc1cc(NS(=O)(=O)c2ccc(N)cc2)ncn1', 'TAB109', 'False'),
  ('c1ccc(-c2nc[nH]c2-c2ccccc2)cc1', 'TAB109', 'False'),
  ('CCN1/C(=C/C=C/c2sc3ccccc3[n+]2CC)Sc2ccccc21', 'TAB109', 'True'),
  ('CCOC(=O)c1c(N)sc2c1CCN(Cc1ccccc1)C2', 'TAB109', 'True'),
  ('FC1(F)C(F)(F)C(F)(F)C2(F)C(F)(F)C(F)(F)C(F)(F)C(F)(F)C2(F)C1(F)F (stereo not drawn)', 'TAB109', 'False'),
  ('Nc1ccc(S(=O)(=O)Nc2cnc3ccccc3n2)cc1', 'TAB109', 'False'),
  ('Nc1nc(-c2ccccc2)c(Br)c(=O)[nH]1', 'TAB109', 'False'),
  ('CC(=O)NO', 'TAB109', 'False'),
  ('O=S(=O)(O)c1ccc(O)cc1', 'TAB109', 'False'),
  ('CN(CCCN1c2ccccc2CCc2ccccc21)CC(=O)c1ccc(Cl)cc1', 'TAB109', 'True'),
  ('CCC(CC)(CC(=O)Nc1cccc(/C=C/c2nc(C3CCC3)cs2)c1)C(=O)O', 'TAB109', 'False'),
  ('O=C(O)C1(C(=O)O)CCC1.[NH2-].[NH2-].[Pt+2]', 'TAB109', 'False');
